- measured on: HDAC8 (Homo sapiens (Human))
- Sequence (Q9BY41 whole entry): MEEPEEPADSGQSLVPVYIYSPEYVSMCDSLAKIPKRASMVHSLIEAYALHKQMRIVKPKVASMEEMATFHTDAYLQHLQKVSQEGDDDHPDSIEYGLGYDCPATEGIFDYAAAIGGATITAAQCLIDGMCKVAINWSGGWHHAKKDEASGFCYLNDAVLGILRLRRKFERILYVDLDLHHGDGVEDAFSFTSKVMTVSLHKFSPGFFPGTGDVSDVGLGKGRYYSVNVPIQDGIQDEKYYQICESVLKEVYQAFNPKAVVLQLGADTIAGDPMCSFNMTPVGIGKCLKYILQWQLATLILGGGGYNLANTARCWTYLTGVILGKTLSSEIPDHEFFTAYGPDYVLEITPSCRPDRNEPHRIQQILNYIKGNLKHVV
- assay notes: SAMDI mass spectrometry HDAC inhibition assay
- Type: biochemical
- recorded conditions: at 10 μM, given if the IC50 was above 10 μM
Short version: inhibition at 10 µM at least 9% is fulfilled, less is not fulfilled.

- compound: "N#Cc1ccc(-c2cn(CCCCCn3cccc(O)c3=O)nn2)cc1C(F)(F)F [Compound 166g]"
  category: "fulfilled"
- compound: "O=c1c(O)cccn1CCn1cc(-c2ccccc2)nn1 [Compound 159a]"
  category: "fulfilled"
- compound: "CN(C)c1ccc(-c2ccc(Cn3cccc(O)c3=O)cc2)cc1 [Compound 148g]"
  category: "fulfilled"
- compound: "O=c1c(O)cccn1Cc1ccc(-c2ccccc2)cc1 [Compound 142c]"
  category: "not fulfilled"

*Q* For this compound, is measured inhibition at 10 µM 9% or higher? Cn1cccc(O)c1=O [Compound 142a, 1-Methyl-3-hydroxypyridine-2-one]
*A* not fulfilled

*Q* For this compound, is measured inhibition at 10 µM 9% or higher? CN(C)c1ccc(-c2ccc(Cn3cccc(O)c3=S)cc2)cn1 [Compound 149h]
*A* fulfilled

*Q* For this compound, is measured inhibition at 10 µM 9% or higher? N#Cc1ccc(-c2ccc(Cn3cccc(O)c3=O)cc2)cc1 [Compound 148a]
*A* fulfilled
